Data origin: patent US8932597B2

test system: anti-M2 human monoclonal antibody Z3G1; type: binding
property-label: Signal (peptides that bind to Z3G1)

substance	val
1362 (SLLCEVETPIRCE; epitope peptide) [compound 1362]	2307
579 (SLLTEVETPIRNEWGCRWNDSSD; epitope peptide) [compound 579]	2364
400 (SLLTEVETPIRNEWGCRCNVSSD; epitope peptide) [compound 400]	2476
1391 (SLLCEVETPICNEWG; epitope peptide) [compound 1391]	2536
1266 (MYLLTEVETPIRNEWGCRCN; epitope peptide) [compound 1266]	1960
542 (MSLCTEVGMSLLTCV; epitope peptide) [compound 542]	2722

# next substance below
API: value(readout=Signal (peptides that bind to Z3G1), system=anti-M2 human monoclonal antibody Z3G1) for record 1277 (MSLRTEVETPIRNEWGCRCN; epitope peptide) [compound 1277]
2554

* * *

tested on: mAb 8i10; assay type: binding, human
# label = Satisfied if Binding activity to truncated M2 peptides, ELISA absorbance at 450 nm, 8i10 >= 0.1 else Not satisfied

Worked examples follow.
substance	class-name
SLLTEVETPIRNEWGCR [NM17]	Satisfied
VETPIRNEWGCR [M12]	Not satisfied
IRNEWGCRCNDSSD [CM14]	Satisfied
SLLTEVETPIRNEW [NM14]	Satisfied

Quick check, Binding activity to truncated M2 peptides, ELISA absorbance at 450 nm, 8i10 >= 0.1? SLLTEVETPIRNEWGC [NM16]
Satisfied

Quick check, Binding activity to truncated M2 peptides, ELISA absorbance at 450 nm, 8i10 >= 0.1? NEWGCRCNDSSD [CM12]
Satisfied

Quick check, Binding activity to truncated M2 peptides, ELISA absorbance at 450 nm, 8i10 >= 0.1? SLLTEVETPIR [NM11]
Satisfied

Quick check, Binding activity to truncated M2 peptides, ELISA absorbance at 450 nm, 8i10 >= 0.1? SLLTEVETP [NM9]
Satisfied

Quick check, Binding activity to truncated M2 peptides, ELISA absorbance at 450 nm, 8i10 >= 0.1? RNEWGCRCNDSSD [CM13]
Satisfied

Quick check, Binding activity to truncated M2 peptides, ELISA absorbance at 450 nm, 8i10 >= 0.1? MSLLTEVETPIRNEWGCRCNDSSD [M2e]
Satisfied

* * *

system: anti-M2 human monoclonal antibody Z3G1; assay type: binding
property-label: Signal (peptides that bind to Z3G1)
Give bare numbers.

Answered cases to consult:
substance	assayed-target	property-label	val
1303 (MSLLTEVHTPIRNEWGCRCN; epitope peptide) [compound 1303]	anti-M2 human monoclonal antibody Z3G1	Signal (peptides that bind to Z3G1)	2751
1313 (CMSLLCEVETPIRNE; epitope peptide) [compound 1313]	anti-M2 human monoclonal antibody Z3G1	Signal (peptides that bind to Z3G1)	2582
285 (MSLLTEVGMSLLTCV; epitope peptide) [compound 285]	anti-M2 human monoclonal antibody Z3G1	Signal (peptides that bind to Z3G1)	2872
1395 (SLLCEVCTPIRNEWG; epitope peptide) [compound 1395]	anti-M2 human monoclonal antibody Z3G1	Signal (peptides that bind to Z3G1)	2384

Tell me the measured Signal (peptides that bind to Z3G1) of 309 (CSLLTEVGMSLLCEV; epitope peptide) [compound 309] , please.
2734
